study-target: T1, recombinant human IL-23 (human, UniProt Q9NPF7 20-189; P29460 23-328)
T1 construct: also called hIL-23
T1 sequence 1: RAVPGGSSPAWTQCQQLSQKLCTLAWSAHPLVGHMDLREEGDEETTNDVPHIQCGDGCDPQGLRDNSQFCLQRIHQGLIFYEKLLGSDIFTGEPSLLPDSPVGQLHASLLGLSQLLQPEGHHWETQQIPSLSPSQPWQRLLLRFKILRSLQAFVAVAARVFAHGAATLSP
T1 sequence 2: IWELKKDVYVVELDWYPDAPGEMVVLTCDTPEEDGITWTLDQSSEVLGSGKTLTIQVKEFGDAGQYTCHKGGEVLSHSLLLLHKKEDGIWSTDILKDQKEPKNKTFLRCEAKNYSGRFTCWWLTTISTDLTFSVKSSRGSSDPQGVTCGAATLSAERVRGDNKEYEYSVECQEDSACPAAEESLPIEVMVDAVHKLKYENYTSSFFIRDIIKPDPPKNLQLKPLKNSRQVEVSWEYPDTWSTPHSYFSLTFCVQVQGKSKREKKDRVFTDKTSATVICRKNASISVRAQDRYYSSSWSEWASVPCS
measurement-protocol: IL-23/IL-23R inhibition ELISA (optimised protocol, OD450): plate coated with human IL23R Fc chimera, antibody pre-incubated with constant human IL-23, bound IL-23 detected with biotinylated anti-human IL-12; purified antibody
quantity: IC50 (read off the curve)

binder	quantity	value-reported
A3M0 (antibody, human IgG1, kappa, V domains shown, Full length chains; also called humanized mAb A3M0) VH: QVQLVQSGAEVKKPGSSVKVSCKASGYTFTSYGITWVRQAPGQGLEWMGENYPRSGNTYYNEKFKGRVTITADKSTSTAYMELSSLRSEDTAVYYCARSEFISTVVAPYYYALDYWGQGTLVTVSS VL: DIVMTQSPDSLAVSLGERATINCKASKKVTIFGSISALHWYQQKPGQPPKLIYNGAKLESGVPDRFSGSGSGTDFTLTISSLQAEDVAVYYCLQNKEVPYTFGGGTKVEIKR	IC50 (read off the curve)	~0.5 nM

Q: IC50 (read off the curve) for A6M0 (antibody, human IgG1, kappa, V domains shown, Full length chains) VH: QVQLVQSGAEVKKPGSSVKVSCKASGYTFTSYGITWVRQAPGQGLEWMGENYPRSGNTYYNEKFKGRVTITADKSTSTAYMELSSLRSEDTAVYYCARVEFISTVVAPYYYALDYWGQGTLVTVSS VL: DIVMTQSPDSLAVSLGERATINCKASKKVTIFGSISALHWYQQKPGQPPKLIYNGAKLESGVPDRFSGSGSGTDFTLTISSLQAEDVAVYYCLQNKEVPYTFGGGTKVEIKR ?
Result: ~0.2 nM

Q: IC50 (read off the curve) for A3N2 (antibody, human IgG1, kappa, V domains shown, Full length chains) VH: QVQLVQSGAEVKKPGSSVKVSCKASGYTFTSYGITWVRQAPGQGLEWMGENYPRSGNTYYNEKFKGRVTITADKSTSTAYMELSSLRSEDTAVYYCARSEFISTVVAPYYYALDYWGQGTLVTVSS VL: DIVMTQTPLSLSVTPGQPASISCKASKKVTIFGSISALHWYLQKPGQPPQLIYNGAKLESGVSDRFSDSGSGTDFTLKISRVEAEDVGVYYCLQNKEVPYTFGGGTKVEIKR ?
Result: ~0.8 nM

Q: IC50 (read off the curve) for A3M1 (antibody, human IgG1, kappa, V domains shown, Full length chains) VH: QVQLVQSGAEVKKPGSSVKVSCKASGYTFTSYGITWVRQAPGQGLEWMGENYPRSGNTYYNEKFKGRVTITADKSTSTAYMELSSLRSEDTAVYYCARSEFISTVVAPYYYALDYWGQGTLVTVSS VL: DIVMTQSPDSLAVSLGERATINCKASKKVTIFGSISALHWYQQKPGQPPKLIYNGAKLESGVSDRFSDSGSQNRSPFGNQLSFTLTISSLQAEDVAVYYCLQNKEVPYTFGGGTKVEIKR ?
Result: ~0.5 nM

Q: IC50 (read off the curve) for A8M3 (antibody, V domains shown) VH: QVQLVQSGAEVKKPGSSVKVSCKASGYTFTSYGITWVRQAPGQGLEWMGEDYPRSGNTYYNEKFKGRVTITADKSTSTAYMELSSLRSEDTAVYYCARAEFISTVVAPYYYALDYWGQGTLVTVSS VL: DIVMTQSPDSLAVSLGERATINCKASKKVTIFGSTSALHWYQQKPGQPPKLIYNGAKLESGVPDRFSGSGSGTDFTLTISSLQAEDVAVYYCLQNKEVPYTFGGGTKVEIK ?
Result: ~0.2 nM

Q: IC50 (read off the curve) for A7M3 (antibody, human IgG1, kappa, V domains shown, Full length chains) VH: QVQLVQSGAEVKKPGSSVKVSCKASGYTFTSYGITWVRQAPGQGLEWMGEDYPRSGNTYYNEKFKGRVTITADKSTSTAYMELSSLRSEDTAVYYCARSEFISTVVAPYYYALDYWGQGTLVTVSS VL: DIVMTQSPDSLAVSLGERATINCKASKKVTIFGSTSALHWYQQKPGQPPKLIYNGAKLESGVPDRFSGSGSGTDFTLTISSLQAEDVAVYYCLQNKEVPYTFGGGTKVEIKR ?
Result: ~0.2 nM
